B1: CPEB3 Ribozyme (parent)
chain: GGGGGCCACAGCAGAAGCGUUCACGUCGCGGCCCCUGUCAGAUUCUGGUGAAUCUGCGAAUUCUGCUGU

variants of: B1; experiment: self-cleavage, relative activity (ratio to wild type); higher = more cleavage; co-transcriptional
# label = True if self-cleavage >= 0.5 else False

# count of solved cases: 2
>>> discrete_label("G41C G68A")
"True"
>>> discrete_label("C12U U43C")
"True"

Incoming: # check: self-cleavage of A15C C33A is greater than or equal to 0.5
Outgoing: False

Incoming: Also check G19U C39A
Outgoing: False

Origin of measurements: the RNAGym collection of RNA variant scans (doi:10.7554/elife.80360)
